Where do these numbers come from? They come from PubChem BioAssay (NCI).

Listing: growth of selected molecules
- Tested on: OVCAR-4 ovarian
- procedure_summary: NCI-60 one-dose screen, 48 h (100 = growth as untreated, 0 = no growth, -100 = all killed)
- applied_conditions: 10 µM
Compounds without any hit were thinned out: in the full panel of roughly 83,000, 20% have a hit.
quantity_measured: growth (%)

{"molecule": "C/C(=C\\CC/C=C(\\C)CC/C=C(\\C)CC[C@@H](O)C(C)(C)O)CC/C=C(\\C)CC[C@@H](O)C(C)(C)O", "result_number": 42}
{"molecule": "O=c1[nH]c2ccccc2cc1CSc1ccc(Nc2nccc(-c3ccc(Cl)cc3)n2)cc1", "result_number": -76.8}
{"molecule": "Nc1cccnc1/C=N/NC(=S)NCCNC(=O)c1ccc(-n2nc(-c3ccccc3O)nc2-c2ccccc2O)cc1", "result_number": 22.1}
{"molecule": "COc1ccc(C=CC(=O)c2ccc(-n3c(C)nc4c(cnn4-c4ccccc4)c3=O)cc2)cc1", "result_number": 65.7}
{"molecule": "CN1CCN(c2ccc(C(=O)/C=C/c3cc(Br)ccc3F)cc2)CC1", "result_number": 59.6}
{"molecule": "COC[C@@H](CC(C)C)N=C1NC(=O)/C(=C/c2ccc3ncoc3c2)N1", "result_number": 53.7}
{"molecule": "O=C1CCC(N2Cc3c(NCc4ccc(-c5ccccc5)cc4)cccc3C2=O)C(=O)N1 (centres undefined)", "result_number": 69.8}
{"molecule": "Nc1nc(Nc2ccc(Cl)cc2)nn1Cc1cccc(Br)c1", "result_number": 46.8}
{"molecule": "Cn1cc(-c2cc(N)n3nc(-c4c[nH]c5ccc(Br)cc45)cc3n2)c2cc(Br)cnc21", "result_number": -41.1}
{"molecule": "O=C(N/N=C/c1ccc(-c2cccc([N+](=O)[O-])c2)o1)c1[nH]c2ccc(Br)cc2c1-c1ccccc1", "result_number": 45.5}
{"molecule": "O=C1NC(=NC23CC4CC(CC(C4)C2)C3)N/C1=C\\c1ccc2ncccc2n1", "result_number": -24.7}
{"molecule": "COc1cc(NC(=O)CSc2nnc(-c3ccc4nc(-c5ccc(Cl)cc5)[nH]c4c3)o2)cc(OC)c1OC", "result_number": 61.9}
{"molecule": "N#Cc1ccc(-c2nn(-c3ccc(C(=O)O)cc3)cc2CNc2cccc(Br)c2)cc1", "result_number": 75.5}
{"molecule": "Cc1ccc(C(=O)CSc2nnc(-c3c[nH]c4ccccc34)n2-c2ccccc2)cc1", "result_number": -15.6}
{"molecule": "COc1ccc(CCN2C(=O)/C(=C/c3csc(C#N)n3)SC2=S)cc1", "result_number": 38.4}
{"molecule": "CNC(=O)c1cccc(N2CCc3c2ccc(NC(=O)Nc2ccc(N4CCN(C)CC4)c(C(F)(F)F)c2)c3F)c1", "result_number": -86.1}
{"molecule": "c1ccc(C(=C(c2ccc(OCCN3CCCCC3)cc2)c2ccc(OCCN3CCCCC3)cc2)C2CCCC2)cc1", "result_number": 1.48}
{"molecule": "COc1ccc2[nH]c(=O)c(CSc3ccc(Nc4nccc(-c5ccc(Cl)cc5)n4)cc3)cc2c1", "result_number": 94.8}
{"molecule": "COc1ccc(C(=O)/C=C/c2cc(F)cc(C(F)(F)F)c2)cc1S(N)(=O)=O", "result_number": -98}

---

- System: OVCAR-4 ovarian
- procedure_summary: NCI-60 one-dose screen, 48 h (100 = growth as untreated, 0 = no growth, -100 = all killed)
- applied_conditions: 10 µM
This is part of a sample that, as a whole, favours compounds with a hit. Of some 83,000 tested, about 20% had one in any assay.

{"molecule": "COc1ccc(OC)c(-c2cc(-c3c[nH]c4ccccc34)nc(N)c2C#N)c1", "growth, %": 22.9}
{"molecule": "C=C1CCC2C3(C)COC(c4c(F)cccc4F)OC3CCC2(C)C1CC(O)C1=CCOC1=O (configuration not stated)", "growth, %": 60.2}
{"molecule": "COC(=O)CC1CC1C1Cc2c(nc(N(C)S(C)(=O)=O)nc2C(C)C)-c2ccc(F)cc21 (configuration not stated)", "growth, %": 82.3}
{"molecule": "Cc1ccc2nc(-c3ccc(-c4nnc(SCC(=O)Nc5ccc(Br)cc5)o4)cc3)[nH]c2c1", "growth, %": 76.8}
{"molecule": "O=C(c1ccc(O)cc1)C1[C@H](c2ccc(Br)cc2)[C@@H](c2ccccc2)NC12C(=O)Nc1ccccc12 (some centres not stated)", "growth, %": 34.1}
{"molecule": "CCOc1ccc(/C=N/NC(=O)Cn2nc(Cc3ccc([N+](=O)[O-])cc3)c3onc(C)c3c2=O)cc1", "growth, %": -34.8}
{"molecule": "CC(=O)c1ccc(Nc2nc(SCCC(C)C)nc(-c3ccc(F)cc3)c2C#N)cc1", "growth, %": -6.74}
{"molecule": "O=C(Cn1nc(-c2ccccc2)ccc1=O)NNC(=S)NC1CCCCC1", "growth, %": 114}
{"molecule": "COc1ccc(C(C)=C(c2ccc(OCCCN(C)C)cc2)c2ccc(OCCCN(C)C)cc2)cc1", "growth, %": -94.6}
{"molecule": "Cc1ccc(-c2cc(-c3cc4ccccc4nc3Cl)[nH]c(=O)n2)cc1", "growth, %": 48.1}
{"molecule": "O=C(NO)c1ccc(CN2CCN(c3nc(-c4ccccc4)c4ccccc4n3)CC2)cc1", "growth, %": 22.7}
{"molecule": "COc1cccc(-c2ccc(/C=N/NC(=O)c3[nH]c4ccc(Br)cc4c3-c3ccccc3)o2)c1", "growth, %": 37.3}
{"molecule": "CCCSc1nc(NC2CC2)c(C#N)c(-c2ccc(OC)cc2)n1", "growth, %": 84.5}
{"molecule": "NS(=O)(=O)c1ccc(N=Nc2c(O)n(CC(=O)Nc3ccccc3Br)c3ccccc23)cc1", "growth, %": 69.4}
{"molecule": "COC1CC(Cn2cc(COc3ccc4ccc(=O)oc4c3)nn2)C(OCc2ccccc2)C(OCc2ccccc2)C1OCc1ccccc1 (configuration not stated)", "growth, %": 93.4}
{"molecule": "O=C1Nc2ccc(F)cc2/C1=C/c1cccc(OCc2ccccn2)c1", "growth, %": 61.3}
{"molecule": "Nc1cc(-c2cccc(C(=O)NCc3ccc4c(c3)OCO4)c2)ccn1", "growth, %": 90.1}
{"molecule": "CC1=C(C(=O)OC(C)C)C(c2ccc(O)cc2)NC(=S)N1 (configuration not stated)", "growth, %": 115}
{"molecule": "Cc1ccc2nc(COc3ccc(C(=O)NNC(=S)NC(=O)c4ccccc4)cc3)[nH]c2c1", "growth, %": 57.3}
{"molecule": "O=C(Nc1cccc([N+](=O)[O-])c1)Nc1cccc([N+](=O)[O-])c1", "growth, %": 73.6}
{"molecule": "Cc1noc2c(Cc3ccccc3)nn(CC(=O)N/N=C/c3ccc(F)cc3)c(=O)c12", "growth, %": 5.18}
{"molecule": "Cc1cccc2cc(-c3cc(-c4ccccc4)nc(=O)[nH]3)c(Cl)nc12", "growth, %": 103}
{"molecule": "C=C1CCC2C3(C)COC(c4cc(F)cc(F)c4)OC3CCC2(C)C1C/C=C1/C(=O)OCC1O (configuration not stated)", "growth, %": -11}
{"molecule": "Cc1cccc(-c2nc(Nc3ccccc3C(=O)O)c3ccccc3n2)c1", "growth, %": 41.9}
{"molecule": "O=C(COc1ccc(NC(=O)Nc2ccc(Cl)cc2)cc1)N=Nc1c(O)[nH]c2ccc([N+](=O)[O-])cc12", "growth, %": -11.6}
{"molecule": "CN1CCN(c2ccc(C(=O)/C=C/c3ccc(C#N)cc3)cc2)CC1", "growth, %": 85}
{"molecule": "COc1cnc2c(c1)C(=O)c1c-2n(CCCNC(C)C)c(=O)c2cc(OC)c(OC)cc12", "growth, %": 28.2}
{"molecule": "CC(C)C1=C[C@@]23CC[C@@H]4[C@](C)(CCC[C@]4(C)C(=O)NCc4ccccc4)[C@H]2C[C@@H]1[C@H]1C(=O)CCC(=O)[C@H]13", "growth, %": 47.3}
{"molecule": "COc1ccccc1C(=O)NNC(=O)CSc1nc2c(c(=O)[nH]1)CCCC2", "growth, %": 105}
{"molecule": "COC[C@@H](CC(C)C)N=C1N/C(=C\\c2ccc3ncsc3c2)C(=O)N1C", "growth, %": 29.3}
{"molecule": "Cc1cccc2cc(-c3cc(-c4ccccc4)nc(=S)[nH]3)c(Cl)nc12", "growth, %": 99.5}
{"molecule": "COc1nccnc1NS(=O)(=O)c1ccc(NC2=C(Cl)C(=O)c3nc(C)ccc3C2=O)cc1", "growth, %": 86.5}
{"molecule": "CN1CCN(c2ccc(Nc3nc(N4CCN(S(=O)(=O)c5ccc(Cl)cc5)CC4)c4sccc4n3)cc2)CC1", "growth, %": -82.6}
{"molecule": "COc1ccccc1[C@H]1C(C(=O)c2ccc(Cl)cc2)C2(N[C@@H]1c1ccccc1)C(=O)Nc1ccc(Cl)cc12 (some centres not stated)", "growth, %": 24}
{"molecule": "CN1CCCN(Cc2ccc(C(=O)Nc3cccc(Nc4ccc5cc(O)ccc5n4)c3)cc2C(F)(F)F)CC1", "growth, %": 77.2}
{"molecule": "O=c1oc2ccc(-c3ccc(F)cc3F)cc2c(=O)n1-c1ccc(F)c(Cl)c1", "growth, %": 10.5}
{"molecule": "COc1ccc(/C=C/C(=O)c2ccc(S(=O)(=O)NCCNc3nc(Nc4ccc(F)cc4)nc(N(C)C)n3)cc2)cc1", "growth, %": 21.8}
